Recorded self-cleavage for the following variants
B1: HDV Ribozyme (parent)
chain: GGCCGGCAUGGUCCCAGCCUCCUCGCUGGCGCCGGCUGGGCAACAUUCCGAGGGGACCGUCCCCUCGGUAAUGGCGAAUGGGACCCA

variants of: B1; experiment: self-cleavage, relative activity (ratio to wild type); higher = more cleavage; co-transcriptional
Please give only the number in your answer, with no unit.

variant_id	observed
A45U G82A	0.162

Q: What does the record list as self-cleavage for G52U G68C ?
Result: 0.185

Q: What does the record list as self-cleavage for G1C A8U ?
Result: 0.0978
